Values compiled from PubChem BioAssay (NCI).

Tested on: HCC-2998 colon
Assay: NCI tumour cell line growth inhibition, 48 h
This listing pairs compounds with measured TGI.

INSERT INTO measurements (compound, observed_result) VALUES
  ('CC(=O)O[C@H](C[C@H](C(C)C)N(C)C(=O)[C@@H](NC(=O)[C@H]1CCCCN1C)C(C)C)c1cccc(C(=O)N[C@@H](Cc2ccccc2)C[C@H](C)C(=O)O)n1', '> 25 µM'),
  ('CC[n+]1c(/C=C/c2ccc(N(CCCl)CCCl)cc2)ccc2cc(I)ccc21', '2.58 µM'),
  ('COc1cc(CN(c2ccc(C)cc2)C2OC(=O)c3ccccc32)cc(OC)c1OC (stereo not drawn)', '> 31.2 µM');

# TGI (compound: CCC(C)(O)c1cn(-c2ccc(S(=O)(=O)O)cc2)nn1 (stereo not drawn) ) is > 100 µM

# TGI (compound: CC(=O)NC1(C)C(C)C2CC1C(C)C2(C)C (stereo not drawn) ) is > 100 µM

# TGI (compound: `C=Cc1c(C)c2cc3[nH]c(cc4nc(cc5nc(cc1[nH]2)C(C)=C5CCC(=O)N(CC)CC)C(CCC(=O)N(CC)CC)=C4C)c(C)c3C=C` ) is > 100 µM

# TGI (compound: `Cn1cc(C2=C(c3ccccc3C(F)(F)F)C(=O)NC2=O)c2ccccc21` ) is > 25 µM

# TGI (compound: `COc1cccc2nc3c(C(=O)NCCN(C)C)cccc3nc12` ) is 36.3 µM

# TGI (compound: `O=c1c2c3c(sc2nc2n1N=CN(c1ccc(F)cc1)C2)CCCC3` ) is > 100 µM

# TGI (compound: `CC(=O)NC1=C(N)C(=O)c2ccccc2C1=O` ) is > 100 µM

# TGI (compound: CC(=O)OC1C(O[C@H]2CC[C@]34O[C@]35CC[C@]3(C)C(C6(C)CC[C@@H](C(C)(C)O)O6)[C@@H](O)CC3(C)[C@@H]5CC(OC3OC(CO)C(O)C(O)C3O)C4C2(C)C)OCC(O)C1O (stereo partly drawn) ) is > 100 µM

# TGI (compound: `CCN(CC)c1ccc2nc3ccc(N=Nc4ccc(O)cc4)cc3[n+](-c3ccccc3)c2c1` ) is 16.4 µM

# TGI (compound: `Cc1ccc(C(=O)N/N=C2/C(=O)c3c4ccccc4cc4cccc2c34)cc1` ) is > 100 µM

# TGI (compound: `Cn1cncc1-c1c(F)cncc1NC(=O)c1c(N)nn2cc(F)cnc12` ) is > 100 µM
